The next entries give measured zfPXR Efficacy for zebrafish PXR (Danio rerio, UniProt A5WYG8).
Reply briefly: the number, and no unit.

Reference set, count: 5
Determine reported zfPXR Efficacy for c1ccc2c(c1)cc1ccc3cccc4ccc2c1c34 [MI3, Benzo [a]pyren] ; test system: zebrafish PXR (Danio rerio, UniProt A5WYG8).
Sequence (A5WYG8 144-430): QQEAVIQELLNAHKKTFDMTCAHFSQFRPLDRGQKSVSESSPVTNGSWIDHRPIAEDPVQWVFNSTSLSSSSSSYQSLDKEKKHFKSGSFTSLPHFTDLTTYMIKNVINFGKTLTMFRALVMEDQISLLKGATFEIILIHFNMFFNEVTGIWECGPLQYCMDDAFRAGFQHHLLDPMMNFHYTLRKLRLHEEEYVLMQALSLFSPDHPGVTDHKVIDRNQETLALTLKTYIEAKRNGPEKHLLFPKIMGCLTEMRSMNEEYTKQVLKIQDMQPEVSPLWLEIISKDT
0.06

Determine reported zfPXR Efficacy for `C[C@]12CC[C@H](O)CC1=CC[C@@H]1[C@@H]2CC[C@]2(C)C(=O)CC[C@@H]12` ; test system: zebrafish PXR (Danio rerio, UniProt A5WYG8).
0.35

Determine reported zfPXR Efficacy for `C[C@]12CC[C@@H]3c4ccc(O)cc4CC[C@H]3[C@@H]1C[C@@H](O)C2=O` ; test system: zebrafish PXR (Danio rerio, UniProt A5WYG8).
0.17

Determine reported zfPXR Efficacy for C[C@H](CCC(O)C(CO)COS(=O)(=O)O)[C@H]1CC[C@H]2[C@@H]3[C@H](O)C[C@@H]4C[C@H](O)CC[C@]4(C)[C@H]3C[C@H](O)[C@]12C (stereo partly drawn) ; test system: zebrafish PXR (Danio rerio, UniProt A5WYG8).
0.13

Determine reported zfPXR Efficacy for `C[C@H](O)[C@H]1CC[C@H]2[C@@H]3CC[C@H]4C[C@H](O)CC[C@]4(C)[C@H]3CC[C@]12C` ; test system: zebrafish PXR (Danio rerio, UniProt A5WYG8).
0.29

The record that follows has no zfPXR Efficacy shown yet.
Determine reported zfPXR Efficacy for `COc1c(O)ccc2c1CC[C@@H]1[C@@H]2CC[C@]2(C)C(=O)CC[C@@H]12` ; test system: zebrafish PXR (Danio rerio, UniProt A5WYG8).
0.19
